Reference source for all entries: ChEMBL document CHEMBL1828511

System under test: Thromboxane A2 receptor (Homo sapiens)
Sequence (P21731 whole entry): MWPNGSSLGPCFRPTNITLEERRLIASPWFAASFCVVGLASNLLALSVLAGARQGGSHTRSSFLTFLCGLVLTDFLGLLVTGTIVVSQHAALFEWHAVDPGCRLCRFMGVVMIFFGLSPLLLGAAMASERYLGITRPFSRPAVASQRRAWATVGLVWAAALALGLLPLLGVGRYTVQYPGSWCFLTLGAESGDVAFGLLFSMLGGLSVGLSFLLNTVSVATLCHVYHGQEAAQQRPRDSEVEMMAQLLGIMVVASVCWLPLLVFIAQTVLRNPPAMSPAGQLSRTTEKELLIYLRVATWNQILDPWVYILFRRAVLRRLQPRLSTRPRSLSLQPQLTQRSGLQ
Experiment: Antagonist activity at thromboxane receptor in human blood assessed as inhibition of U-46619-induced effect
Type: functional
Measured quantity: pIC50
Friendly reminder that pIC50 comes from taking -log10 of the concentration in mol/L.

Supply reported pIC50 belonging to this molecule: `NC(=O)c1nonc1CSCC(=O)Oc1ccccc1C(=O)O`
4.41

Check the records and state pIC50 for `NC(=O)c1c(CSCC(=O)Oc2ccccc2C(=O)O)no[n+]1[O-]`
4.42

* * *

Experiment: Stability of the compound in 0.1 M HCl at pH 1 assessed as compound remaining at 100 uM after 3 hrs by RP-HPLC analysis
Assay type: physicochemical
Conditions: read-out: Stability
Measured quantity: remaining at 3 h, 100 µM (%)
The answer is to be given in %; state only the numeric part.

Please report remaining at 3 h, 100 µM for the following compound: `NC(=O)c1nonc1CSCC(=O)Oc1ccccc1C(=O)O`
97

// fetch remaining at 3 h, 100 µM given entry `O=C(CCOc1nonc1-c1ccccc1)Oc1ccccc1C(=O)O`
98

Determine from records and report remaining at 3 h, 100 µM for `O=C(CCOc1no[n+]([O-])c1-c1ccccc1)Oc1ccccc1C(=O)O`
98

Using known records, supply remaining at 3 h, 100 µM for `O=C(CCOc1no[n+]([O-])c1S(=O)(=O)c1ccccc1)Oc1ccccc1C(=O)O`
96

Tell me its remaining at 3 h, 100 µM given `N#Cc1nonc1CSCC(=O)Oc1ccccc1C(=O)O` as the entry.
96

Assign remaining at 3 h, 100 µM to the following record: `NC(=O)c1c(CSCC(=O)Oc2ccccc2C(=O)O)no[n+]1[O-]`
97

Please indicate remaining at 3 h, 100 µM recorded for `N#Cc1c(CSCC(=O)Oc2ccccc2C(=O)O)no[n+]1[O-]`
96

Tell me its remaining at 3 h, 100 µM given `O=C(CCOc1nonc1S(=O)(=O)c1ccccc1)Oc1ccccc1C(=O)O` as the entry.
97

Look up and report measured remaining at 3 h, 100 µM for this entry: CC(=O)Oc1ccccc1C(=O)O [ASPIRIN]
90
